# Measurement target: catalytic domain of human collagenase-1 (MMP-1) (Homo sapiens, UniProt P03956)
# Construct: enzyme activity of the catalytic domain of human collagenase-1 (MMP-1)
# Sequence (P03956 100-269 limits assumed): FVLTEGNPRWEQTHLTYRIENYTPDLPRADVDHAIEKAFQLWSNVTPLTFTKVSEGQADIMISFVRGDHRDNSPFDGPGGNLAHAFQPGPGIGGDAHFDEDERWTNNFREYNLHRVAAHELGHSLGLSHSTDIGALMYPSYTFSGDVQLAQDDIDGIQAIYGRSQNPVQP
# Measurement description: Enzyme activity of the catalytic domain of human collagenase-1 (MMP-1), fluorogenic substrate
# Measurement parameters: APMA-activated proenzyme, fluorescence 328/393 nm
pIC50: −log10 of the molar value.
Measurement kind: pIC50

Some entries whose results are on file:
O=C(NO)[C@@H]1[C@@H]2CCCC[C@@H]2CCN1S(=O)(=O)c1ccc(-c2ccc(Cl)cc2)cc1 (single isomer, unassigned) [Example 15]
5.22
O=C(NO)C1C2CCCCC2CCN1S(=O)(=O)c1ccc(Oc2ccccc2)nc1 (stereo not drawn) [Example 5]
7.15
O=C(NO)C1C2CCCCC2CCN1S(=O)(=O)c1ccc(Oc2ccc(F)cc2)cc1 (stereo not drawn) [Example 20]
7.39

a: O=C(NO)C1C2CCCCC2CCN1S(=O)(=O)c1ccc(Oc2ccc(OC(F)(F)F)cc2)cc1 (stereo not drawn) [Example 23]
b: O=C(NO)C1C2CCCCC2CCN1S(=O)(=O)c1ccc(Oc2ccncc2)cc1 (stereo not drawn) [Example 9]
Request: Param pair: a , b . Output: the one whose pIC50 is numerically greater. Provide the label of your selected option as the answer.
Response: a

P: O=C(NO)C1C2CCCCC2CCN1S(=O)(=O)c1ccc(-c2ccc(Cl)cc2)cc1 (stereo not drawn) [Example 3]
Q: O=C(NO)[C@H]1[C@H]2CCCC[C@H]2CCN1S(=O)(=O)c1ccc(Oc2ccc(F)cc2)cc1 [Example 21]
Request: Field: entry with larger pIC50 (options P / Q ). // caller expects the label of the chosen entry
Response: Q

====

# Measurement target: catalytic domain of human neutrophilic collagenase (MMP-8) (Homo sapiens)
# Construct: of the catalytic domain of human stromelysin (MMP-3) and neutrophilic collagenase (MMP-8)
# Sequence (P22894 100-262 limits assumed): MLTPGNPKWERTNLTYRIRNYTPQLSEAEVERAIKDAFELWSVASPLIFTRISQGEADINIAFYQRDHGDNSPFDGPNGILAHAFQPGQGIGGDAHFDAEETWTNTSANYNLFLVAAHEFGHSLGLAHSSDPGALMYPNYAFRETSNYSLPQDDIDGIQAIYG
# Measurement description: Enzyme activity of the catalytic domain of neutrophilic collagenase (MMP-8), fluorogenic substrate
# Measurement parameters: catalytic domain prepared as described by Ye et al., fluorescence 328/393 nm
pIC50: −log10 of the molar value.
Measurement kind: pIC50

Observe how each entry below is paired with its result.
COc1ccc(Oc2ccc(S(=O)(=O)N3CCC4CCCCC4C3C(=O)NO)cc2)cc1 (centres unmarked)
8.60
O=C(NO)C1C2CCCCC2CCN1S(=O)(=O)c1ccc(-c2ccc(Cl)cc2)cc1 (centres unmarked)
8.52
O=C(NO)C1C2CCCCC2CCN1S(=O)(=O)c1ccc(-c2ccc(OC(F)(F)F)cc2)cc1 (centres unmarked)
8.00

a: O=C(NO)C1C2CCCCC2CCN1S(=O)(=O)CCc1ccc(-c2ccc(Cl)cc2)cc1 (centres unmarked)
b: O=C(NO)C1C2CCCCC2CCN1S(=O)(=O)c1ccc(Oc2ccc(OCC(F)(F)F)cc2)cc1 (centres unmarked)
c: O=C(NO)[C@H]1[C@H]2CCCC[C@H]2CCN1S(=O)(=O)c1ccc(Oc2ccc(F)cc2)cc1
Request: Please produce an ascending ranking of these compounds based on pIC50. Answer with the labels in sequence, matching the requested order.
Response: a, b, c
(a: 7.89, b: 8.40, c: 8.64)

P: N#Cc1ccc(Oc2ccc(S(=O)(=O)N3CCC4CCCCC4C3C(=O)NO)cc2)cc1 (centres unmarked)
Q: O=C(NO)C1C2CCCCC2CCN1S(=O)(=O)c1ccc(Oc2ccc(OC(F)(F)F)cc2)cc1 (centres unmarked)
Request: Lab note: check whether P or Q shows the higher recorded pIC50. Please reply using the label of the selected record.
Response: Q
(Q: 8.05, P: 7.80)

====

# Measurement target: catalytic domain of human gelatinase B (MMP-9) (Homo sapiens, UniProt P14780)
# Construct: enzyme activity of the catalytic domain of human gelatinase B (MMP-9)
# Sequence (P14780 107-707 limits assumed): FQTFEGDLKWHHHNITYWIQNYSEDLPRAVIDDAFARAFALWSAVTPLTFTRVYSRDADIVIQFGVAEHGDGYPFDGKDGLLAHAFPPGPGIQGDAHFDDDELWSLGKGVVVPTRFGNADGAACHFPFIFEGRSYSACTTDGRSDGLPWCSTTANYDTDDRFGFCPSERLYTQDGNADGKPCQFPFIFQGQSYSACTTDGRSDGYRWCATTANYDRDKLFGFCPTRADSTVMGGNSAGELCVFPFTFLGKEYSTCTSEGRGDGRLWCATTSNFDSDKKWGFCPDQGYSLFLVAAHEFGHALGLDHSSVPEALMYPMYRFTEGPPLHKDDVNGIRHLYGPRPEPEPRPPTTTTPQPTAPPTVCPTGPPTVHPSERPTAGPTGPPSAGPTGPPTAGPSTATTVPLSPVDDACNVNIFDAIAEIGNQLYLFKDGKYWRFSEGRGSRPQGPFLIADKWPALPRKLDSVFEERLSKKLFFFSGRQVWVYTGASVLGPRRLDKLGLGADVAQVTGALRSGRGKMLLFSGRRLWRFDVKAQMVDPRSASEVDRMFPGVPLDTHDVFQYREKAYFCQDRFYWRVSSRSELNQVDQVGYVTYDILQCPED
# Measurement description: Enzyme activity of the catalytic domain of human gelatinase B (MMP-9), fluorogenic substrate
# Measurement parameters: APMA-activated proenzyme, fluorescence 328/393 nm
pIC50: −log10 of the molar value.
Measurement kind: pIC50

Some compounds with known pIC50 results, for comparison:
COc1ccc(Oc2ccc(S(=O)(=O)N3CCC4CCCCC4C3C(=O)NO)cc2)cc1 (centres unmarked)
8.70
N#Cc1ccc(Oc2ccc(S(=O)(=O)N3CCC4CCCCC4C3C(=O)NO)cc2)cc1 (centres unmarked)
8.52
O=C(NO)[C@H]1[C@H]2CCCC[C@H]2CCN1S(=O)(=O)c1ccc(Oc2ccc(F)cc2)cc1
9.35
O=C(NO)C1C2CCCCC2CCN1S(=O)(=O)c1ccc(Oc2ccc(F)cc2)cc1 (centres unmarked)
8.70

A: O=C(NO)C1C2CCCCC2CCN1S(=O)(=O)c1ccc(Oc2ccccc2)nc1 (centres unmarked)
B: O=C(NO)C1C2CCCCC2CCN1S(=O)(=O)c1ccc(Oc2ccc(OCC(F)(F)F)cc2)cc1 (centres unmarked)
C: O=C(NO)C1C2CCCCC2CCN1S(=O)(=O)c1ccc(-c2ccc(Cl)cc2)cc1 (centres unmarked)
D: O=C(NO)C1C2CCCCC2CCN1S(=O)(=O)c1ccc(-c2ccc(OC(F)(F)F)cc2)cc1 (centres unmarked)
Request: Hi! Can you put these in order of pIC50, lowest number first? Kindly provide the labels arranged according to the requested ordering.
Response: C, D, B, A
(C: 7.00, D: 8.30, B: 8.70, A: 8.92)

====

# Measurement target: catalytic domain of human stromelysin (MMP-3) (Homo sapiens, UniProt P08254)
# Construct: of the catalytic domain of human stromelysin (MMP-3) and neutrophilic collagenase (MMP-8)
# Sequence (P08254 100-272 limits assumed): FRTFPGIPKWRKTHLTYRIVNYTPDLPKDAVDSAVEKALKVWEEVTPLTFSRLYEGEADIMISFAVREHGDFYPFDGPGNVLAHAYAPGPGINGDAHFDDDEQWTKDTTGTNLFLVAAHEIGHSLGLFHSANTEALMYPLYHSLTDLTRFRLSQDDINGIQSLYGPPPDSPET
# Measurement description: Enzyme activity of the catalytic domain of human stromelysin (MMP-3), fluorogenic substrate
# Measurement parameters: catalytic domain prepared as described by Ye et al., fluorescence 328/393 nm
Measurement kind: IC50 (nM)

N#Cc1ccc(Oc2ccc(S(=O)(=O)N3CCC4CCCCC4C3C(=O)NO)cc2)cc1 (stereo not shown)
41

P: O=C(NO)C1C2CCCCC2CCN1S(=O)(=O)c1ccc(Oc2ccncc2)cc1 (stereo not shown)
Q: O=C(NO)[C@H]1[C@H]2CCCC[C@H]2CCN1S(=O)(=O)c1ccc(-c2ccc(Cl)cc2)cc1 (single isomer, unassigned)
Request: Of the two listed items, P and Q , which carries the larger IC50 figure? Write the label of whichever entry you select.
Response: P

I: O=C(NO)C1C2CCCCC2CCN1S(=O)(=O)c1ccc(-c2ccc(OC(F)(F)F)cc2)cc1 (stereo not shown)
II: O=C(NO)C1C2CCCCC2CCN1S(=O)(=O)c1ccc(-c2ccc(Cl)cc2)cc1 (stereo not shown)
III: O=C(NO)C1C2CCCCC2CCN1S(=O)(=O)c1ccc(Oc2ccccc2)nc1 (stereo not shown)
IV: O=C(NO)[C@@H]1[C@@H]2CCCC[C@@H]2CCN1S(=O)(=O)c1ccc(-c2ccc(Cl)cc2)cc1 (single isomer, unassigned)
Request: Arrange the 4 entries by IC50 so the values rise. Answer by writing out the labels in the requested order.
Response: III, II, I, IV

I: O=C(NO)C1C2CCCCC2CCN1S(=O)(=O)c1ccc(Oc2ccc(OC(F)(F)F)cc2)cc1 (stereo not shown)
II: O=C(NO)C1C2CCCCC2CCN1S(=O)(=O)c1ccc(Oc2ccc(OCC(F)(F)F)cc2)cc1 (stereo not shown)
Request: Between the entries labelled I and II , which has a larger IC50 value on record? I would appreciate it if you answered with the label of your choice.
Response: I

A: O=C(NO)C1C2CCCCC2CCN1S(=O)(=O)c1ccc(Oc2ccc(F)cc2)cc1 (stereo not shown)
B: O=C(NO)C1C2CCCCC2CCN1S(=O)(=O)CCc1ccc(-c2ccc(Cl)cc2)cc1 (stereo not shown)
Request: So which one has the bigger IC50 here, A or B ? Could you answer with the label of the item you picked?
Response: B
(B: 65 nM, A: 26 nM)

====

# Measurement target: catalytic domain of human collagenase-3 (MMP-13) (Homo sapiens, UniProt P45452)
# Construct: enzyme activity of the catalytic domain of human collagenase-3 (MMP-13)
# Measurement description: Enzyme activity of the catalytic domain of human collagenase-3 (MMP-13), fluorogenic substrate
# Measurement parameters: APMA-activated proenzyme, fluorescence 328/393 nm
Measurement kind: IC50 (nM)

O=C(NO)[C@H]1[C@H]2CCCC[C@H]2CCN1S(=O)(=O)c1ccc(-c2ccc(Cl)cc2)cc1 (single isomer, unassigned) [Example 14]
2

I: O=C(NO)C1C2CCCCC2CCN1S(=O)(=O)c1ccc(Oc2ccccc2)nc1 (stereo not drawn) [Example 5]
II: O=C(NO)C1C2CCCCC2CCN1S(=O)(=O)c1ccc(Oc2ccncc2)cc1 (stereo not drawn) [Example 9]
III: N#Cc1ccc(Oc2ccc(S(=O)(=O)N3CCC4CCCCC4C3C(=O)NO)cc2)cc1 (stereo not drawn) [Example 26]
Request: Order each entry by recorded IC50, climbing from the minimum. Quick reminder: the answer is the labels in the order asked.
Response: I, III, II
